Data provenance: PubChem BioAssay (NCI)

# Tested on: SR leukemia
# Method Description: NCI-60 one-dose screen, 48 h (100 = growth as untreated, 0 = no growth, -100 = all killed)
# Reported Conditions: 10 µM unless noted
# Description: Growth inhibition of the SR human tumor cell line is measured as a screen for anti-cancer activity. Cells are grown in 96 well plates and exposed to the test compound for 48 hours. Compounds are tested at a single concentration, which is 10^-5 M for most compounds. The reported endpoint is percent growth (GI% or GIPRCNT), where numbers from 0 - 100% represent growth inhibition, and numbers from -100% - 0 represent cell death. For example, a value of 40 represents 60% growth inhibition. […]
This is part of a sample that, as a whole, favours compounds with a hit. Of some 83,000 tested, about 20% had one in any assay.
Measured Parameter: growth (%)

- N#Cc1c2cccnc2c2nnc3cc(Cl)c(Cl)cc3n12: 5.53
- C=CC1CN2CCC1CC2C(O)c1ccnc2ccc(OC)cc12 (stereo not given): 113
- CC(=O)N1N=C(c2ccc(Cl)cc2)CC1c1cn(-c2ccccc2)nc1-c1ccc([N+](=O)[O-])cc1 (stereo not given): 120
- [2H]c1nc(=Nc2cc(NC(=O)C=C)c(N(C)CCN(C)C)cc2OC)[nH]c(-c2cn(C([2H])([2H])[2H])c3ccccc23)c1[2H]: -13.7
- COC(=O)c1ccc2[nH]c(O)c(C(=Nc3ccc(N(C)C(=O)CN4CCN(C)CC4)cc3)c3ccc(C)cc3)c2c1: -28.2
- CC(=O)Nc1nc(C)c(C(=O)N/N=C/N2CCCCC2)s1: 104
- COc1ccc2sc(-n3nc4nc5n(c(=O)c4c3N)-c3ccccc3Sc3ccccc3-5)nc2c1: 65.2
- C/C(=N\Nc1ccc(Cl)cn1)c1ccccn1: 4.86
- COc1ccc2c(c1)cn1c3ccc(O)cc3[nH]c(=O)c21: 3.4
- CCCCCCCCCCCCOC(=N)N(C)C: 82.4

###

# System: HCC-2998 colon
# Method Description: NCI-60 one-dose screen, 48 h
# Reported Conditions: 10 µM unless noted
The panel holds about 83,000 compounds, 20% with a hit somewhere; the sample as a whole holds those more often. Activity calls are given as the source filed them. Rule for the calls: active = growth percent below 10; inactive = the rest.
Outcome codes: active, inactive

* O=C1N/C(=N\c2nnc(-c3ccc(O)cc3)s2)S/C1=C\c1ccccc1O | inactive
* CCCC(CCC)Oc1ccc(CCCC2=C(O)c3ccccc3C(=O)C2=O)cc1 | inactive
* COc1ccc2c(c1)/C(=C/c1c(-c3cc(OC)c(OC)c(OC)c3)nc3sccn13)C(=O)N2 | inactive
* COC(=O)[C@H](Cc1cn(C)cn1)NC(=O)[C@H](CC(=O)OCc1ccccc1)NC(=O)Nc1cc(C(F)(F)F)cc(C(F)(F)F)c1 | active
* COc1ccc(Cn2cc3c(c2-c2ccccc2)CCc2cnoc2-3)cc1N | active
* O=c1oc2ccc3ccccc3c2cc1-c1ccnc2[nH]c(=S)[nH]c(=O)c12 | inactive
* Br/C(=N\Nc1nn[nH]n1)c1ccccc1 | inactive
* COC(=O)c1ccc2[nH]c(O)c(C(=Nc3ccc(N(C)C(=O)CN4CCN(C)CC4)cc3)c3ccc(C)cc3)c2c1 | active

###

# Tested on: NCI-H23 lung
# Method Description: NCI-60 one-dose screen, 48 h
# Reported Conditions: 10 µM unless noted
This is part of a sample that, as a whole, favours compounds with a hit. Of some 83,000 tested, about 20% had one in any assay. Active and inactive are the calls of the source. The calls were made as follows: active = growth percent below 10; inactive = the rest.
Possible outcomes: T for active, F for inactive

• N=C(N)N=Nc1ccc(NN=C(N)N)cc1 = F
• COc1ccc(-c2nc(SCC(C)C)nc(Nc3ccccc3)c2C#N)cc1 = F
• CCCCCCCCCC[N+](C)(C)N = F
• COc1ccc(Cn2cc3c(c2-c2ccc(O)cc2)CCc2cnoc2-3)cc1 = F
• CCc1ccc(C(=Nc2ccc(N(C)C(=O)CN3CCN(C)CC3)cc2)c2c(O)[nH]c3ccc(C(=O)OC)cc23)cc1 = T
• CCOP1(=O)CC(C)=C(Cl)C(P(=O)(O)O)C1 (centres undefined) = F
• CNc1nc2ncn(C)c2c(=O)[nH]1 = F
• CCOc1ccc(/C=N/NC(=O)c2cccc3ccccc23)cc1OCC = F
• COc1cccc2c1n([O-])c1cccc(OC)c1[n+]2=O = F
• Cc1ccc2c(c1)C(=O)CCS2 = F
• COc1ccc2c(N)ncc(C#Cc3cc(C(=O)Nc4ccc(CN5CCN(C)CC5)c(C(F)(F)F)c4)cnc3C)c2c1 = T
• Cc1cc2cn3c4ccc(O)cc4nc(N)c3c2cc1C = F
• N#CC1=C(N2CCOCC2)NC2c3ccccc3Sc3ccccc3N2C1=N (centres undefined) = F
• COc1nc(OC)nc(-c2cc(C(=O)c3ccc(Br)cc3)n3cc(C)cc(C)c23)n1 = F
• CCCCCCCCCCCCc1ccc([N+](CC)(CC)CC)cc1 = F
• c1cc[c]([Bi]([c]2ccccc2)[c]2ccccc2)cc1 = F
• COc1cccc2c1nc1cccc(OC)c1[n+]2[O-] = T
• Cc1nc2c(nnn2-c2ccccc2)c2nc(-c3ccccc3)oc(=O)c12 = F
• COC(=O)[C@H](Cc1cn(C)cn1)NC(=O)[C@H](CC(=O)OCc1ccccc1)NC(=O)Nc1cc(C(F)(F)F)cc(C(F)(F)F)c1 = T
• CC(C)(C)c1ccc([I+]c2ccc(C(C)(C)C)cc2)cc1 = T
• O=C(N/N=C/c1cc(Cl)ccc1O)C(=O)N/N=C/c1cc(Cl)ccc1O = F
• CN1CCN(Cc2ccc(NC(=O)c3cncc(C#Cc4c(N)ncc5ccc(F)cc45)c3)cc2C(F)(F)F)CC1 = F
• O=C1c2ccccc2CCc2ccccc21 = F
• CC1(C)NC(=S)NC1=O = F
• CCCC(=O)NNc1[nH]c(-c2ccc(OC)cc2)cc1C(=O)OCC = F
• CCCC(=O)Nc1ccccc1C(=O)O = F
• Cc1ccc(OCCn2ccc(=O)n(CCOc3ccc(Cl)cc3C(=O)c3cc(C)cc(C)c3)c2=O)cc1 = F
• COc1cc(-c2nn(-c3ccc(NC(=O)c4ccc(Cl)c(C(F)(F)F)c4)cc3)cc2-c2ccncc2)ccc1Cl = F
• CC(O)c1cc[cH-]c1.[Fe+2].c1cc[cH-]c1 (centres undefined) = F

###

# Tested on: MDA-MB-231 breast
# Method Description: NCI-60 one-dose screen, 48 h
# Reported Conditions: 10 µM unless noted
About 83,000 compounds went through this panel and 20% of them were active in at least one assay; those are over-represented in the sample as a whole. Activity calls are given as the source filed them. How the source made its calls: active means growth percent below 10; inactive means the rest.
Classes used: 1 for active, -1 for inactive

* COc1ccc(OC)c(Cn2cc3c(c2)-c2oncc2CC3)c1 | -1
* O=C(OCC1CC2(Cl)C(Cl)=C(Cl)C1(Cl)C2(Cl)Cl)C1C(C(=O)OCC2CC3(Cl)C(Cl)=C(Cl)C2(Cl)C3(Cl)Cl)C2(Cl)C(Cl)=C(Cl)C1(Cl)C2(Cl)Cl (centres undefined) | -1
* COC(=O)[C@@H]1[C@H](O)[C@H](C)[C@H](O)[C@H](C)/C=C\C=C(C)C(=O)Nc2c(C)c(OC(C)=O)c3c(c2O)C(=O)C(C)=C2OCOC(=C23)C(C)=C[C@@](C)(O)[C@H](O)[C@@H](C)[C@H]1OC(C)=O | -1
* O=C(N/N=C/c1ccccc1Cl)c1cccc2ccccc12 | -1
* CCC(CCCN1C(=O)c2ccccc2C1=O)Nc1cc(OC)cc2c(C)ccnc12 (centres undefined) | -1
* COc1cc2cc3cc4cc(OC)c(OC)cc4c(C)[n+]3cc2cc1OC (tested in a mixture with another compound) | -1
* CCOC(=O)c1csc(-c2ccc(COC(=O)c3ccccc3)o2)n1 | -1
* Cn1c2c(cc(S(=O)(=O)c3ccccc3)c1=O)CCc1c-2cnn1-c1ccc(Cl)cc1 | -1
* O=c1oc2ccc3ccccc3c2cc1-c1ccnc2[nH]c(=S)[nH]c(=O)c12 | -1
* CCCNC(=O)Oc1ccc(/C(=C(/CC)Cc2ccccc2)c2ccc(OCCN(CC)CC)cc2)cc1 | -1
* CC([C@H]1CC=C2C3CCC4=C[C@@H](N(C)C)CC[C@]4(C)C3CC[C@@]21C)N(C)C (some centres undefined) | 1
* O=C(Nc1ccc(-n2cc(-c3ccncc3)c(-c3ccc(Cl)c(O)c3)n2)cc1)Nc1ccc(Cl)c(C(F)(F)F)c1 | 1
* CCCCCCCCCCCCOC(=N)N(C)C | -1
* CC[C@@H](C)/C=C(C)/C=C/C(=O)c1c(O)c(-c2ccc(OC(=O)[C@@]34CC[C@@](C)(C(=O)O3)C4(C)C)cc2)cn(O)c1=O | -1
* COC(=O)C1CC(=O)N(C(=O)Nc2ccc(Cl)cc2Cl)C1 (centres undefined) | -1
* Oc1ccccc1\C=N/N=C/C=C/c1ccccc1 | -1
* Nc1nc2c(c3ncncc13)C(c1cccc(C(F)(F)F)c1)Cc1ncncc1-2 (centres undefined) | -1
* OC(c1ccccc1)(c1ccccc1)C(F)(F)F | -1
* O=S(=O)(O)CCI | -1
